Below is a list of entries, each paired with its recorded z-score value.
biological target: Metabotropic glutamate receptor 8 (Rattus norvegicus) (UniProt P70579); assay: mGluR8 Gi/Go-coupled signaling modulation – cell-based, rat, thallium flux, HTS, primary screen (AID 488969); conditions: HEK293 rat mGluR8, GIRK (G protein-gated inwardly rectifying potassium channel) thallium flux, FluoZin2; at 10 µM; stronger effect = higher value; submaximal glutamate (EC20) added with thallium
Sequence (P70579 whole entry, looked up): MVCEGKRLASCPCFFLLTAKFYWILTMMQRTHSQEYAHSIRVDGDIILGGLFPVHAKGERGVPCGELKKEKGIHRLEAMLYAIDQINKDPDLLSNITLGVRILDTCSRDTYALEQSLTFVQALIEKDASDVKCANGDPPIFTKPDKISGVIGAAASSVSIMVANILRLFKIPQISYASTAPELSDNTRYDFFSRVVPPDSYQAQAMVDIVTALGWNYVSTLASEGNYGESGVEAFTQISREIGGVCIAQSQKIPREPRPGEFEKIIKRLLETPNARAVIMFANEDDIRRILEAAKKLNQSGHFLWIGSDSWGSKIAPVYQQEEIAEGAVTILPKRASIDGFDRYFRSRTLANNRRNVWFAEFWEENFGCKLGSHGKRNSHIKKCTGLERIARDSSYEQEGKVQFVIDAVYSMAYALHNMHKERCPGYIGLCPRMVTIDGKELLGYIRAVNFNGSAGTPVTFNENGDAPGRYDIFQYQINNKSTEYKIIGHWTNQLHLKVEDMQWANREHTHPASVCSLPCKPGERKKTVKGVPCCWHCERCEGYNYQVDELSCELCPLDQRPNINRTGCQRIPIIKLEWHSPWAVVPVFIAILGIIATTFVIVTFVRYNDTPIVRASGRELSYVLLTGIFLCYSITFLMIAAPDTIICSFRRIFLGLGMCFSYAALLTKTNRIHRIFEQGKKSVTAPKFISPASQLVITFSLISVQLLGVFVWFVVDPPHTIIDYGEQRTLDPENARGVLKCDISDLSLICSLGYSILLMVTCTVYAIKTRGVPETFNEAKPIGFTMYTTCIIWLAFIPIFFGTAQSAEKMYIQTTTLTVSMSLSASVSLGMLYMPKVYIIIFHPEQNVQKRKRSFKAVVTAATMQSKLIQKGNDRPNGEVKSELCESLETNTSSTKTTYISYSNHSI
Over roughly 110,000 compounds, “z-score” has its median near -0.1; the highest 2% begin near 2. Only a selection was taken, and the highest values are over-represented in it overall. The source made the active and inactive calls.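 Rule for the calls: active = z-score in the third read window above 3 or below -3; inactive = the rest.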
QUANTITY: z-score

> print(dat)
                                    compound                               target.desc  quantity            val
 1              CCCCC(=O)Nc1ccc(Br)cc1C(=O)O  Metabotropic glutamate receptor 8 (Rattus norvegicus) (UniProt P70579)   z-score          -0.24
 2             Cc1ccc(OC(=S)Nc2ccccc2)c(C)c1  Metabotropic glutamate receptor 8 (Rattus norvegicus) (UniProt P70579)   z-score   3.2 (active)
 3          CCCCN(CCCC)C(=S)NC(=O)c1ccccc1Cl  Metabotropic glutamate receptor 8 (Rattus norvegicus) (UniProt P70579)   z-score         -0.755
 4          COc1ccc(NC(=O)Nc2cc(C)ccc2OC)cc1  Metabotropic glutamate receptor 8 (Rattus norvegicus) (UniProt P70579)   z-score           2.83
 5  CCCCn1c(-c2csc3c2CCC(C)C3)n[nH]c1=S (centres undefined)  Metabotropic glutamate receptor 8 (Rattus norvegicus) (UniProt P70579)   z-score  7.55 (active)
 6  CC(C)(C)C1CCC(OC(=O)c2ccncc2)CC1 (centres undefined)  Metabotropic glutamate receptor 8 (Rattus norvegicus) (UniProt P70579)   z-score         0.0808
 7              CN(C)CCCOC(=O)c1ccc(Cl)cc1Cl  Metabotropic glutamate receptor 8 (Rattus norvegicus) (UniProt P70579)   z-score           0.77
 8  CCOC(=O)c1ccc(NC(=O)Nc2ccc(OC)c(OC)c2)cc1  Metabotropic glutamate receptor 8 (Rattus norvegicus) (UniProt P70579)   z-score  6.79 (active)
 9   O=C1CCC2CCCCC2(O)O1 (centres undefined)  Metabotropic glutamate receptor 8 (Rattus norvegicus) (UniProt P70579)   z-score        -0.0285
10           COc1ccc(C)cc1NC(=O)NCCC1=CCCCC1  Metabotropic glutamate receptor 8 (Rattus norvegicus) (UniProt P70579)   z-score  10.6 (active)
11  COc1ccc(CCn2c(N)c(S(=O)(=O)c3cccs3)c3nc4ccccc4nc32)cc1OC  Metabotropic glutamate receptor 8 (Rattus norvegicus) (UniProt P70579)   z-score         -0.349
12  O=C(c1cnn2c(C(F)(F)F)cc(-c3ccco3)nc12)N1CCCCCC1  Metabotropic glutamate receptor 8 (Rattus norvegicus) (UniProt P70579)   z-score           2.24
13  CCC(=O)NC(=S)Nc1cccc(NC(=O)c2ccc(Cl)cc2Cl)c1  Metabotropic glutamate receptor 8 (Rattus norvegicus) (UniProt P70579)   z-score          0.179
14            CCn1c(-c2csc3c2CCCC3)n[nH]c1=S  Metabotropic glutamate receptor 8 (Rattus norvegicus) (UniProt P70579)   z-score         -0.181
15  CC1Cc2ccccc2N1C(=S)NC(=O)c1ccc(Cl)cc1Cl (centres undefined)  Metabotropic glutamate receptor 8 (Rattus norvegicus) (UniProt P70579)   z-score  13.5 (active)
16       COc1ccc(OC)c(NC(=O)Nc2ccc(Cl)cc2)c1  Metabotropic glutamate receptor 8 (Rattus norvegicus) (UniProt P70579)   z-score          0.245
17                 CC(C)n1c(=O)[nH]c2ccccc21  Metabotropic glutamate receptor 8 (Rattus norvegicus) (UniProt P70579)   z-score           1.11
18          CCCCn1c(-c2csc3c2CCCC3)n[nH]c1=S  Metabotropic glutamate receptor 8 (Rattus norvegicus) (UniProt P70579)   z-score  6.19 (active)
19  Cc1ccccc1CSCC(=O)c1c(N)n(C)c(=O)n(C)c1=O  Metabotropic glutamate receptor 8 (Rattus norvegicus) (UniProt P70579)   z-score         -0.253
20  CCn1c(-c2csc3c2CCC(C)C3)n[nH]c1=S (centres undefined)  Metabotropic glutamate receptor 8 (Rattus norvegicus) (UniProt P70579)   z-score           1.49
21  CCN(CC(=O)c1c(N)n(C)c(=O)n(C)c1=O)c1cccc2ccccc12  Metabotropic glutamate receptor 8 (Rattus norvegicus) (UniProt P70579)   z-score           2.55
22               COc1nc2ccccc2c(=O)n1OCC(C)C  Metabotropic glutamate receptor 8 (Rattus norvegicus) (UniProt P70579)   z-score         0.0226
23            CS(=O)(=O)NCc1csc(-c2ccccc2)n1  Metabotropic glutamate receptor 8 (Rattus norvegicus) (UniProt P70579)   z-score           2.26
24          CCN(CC)C(=S)NC(=O)c1ccc(Cl)cc1Cl  Metabotropic glutamate receptor 8 (Rattus norvegicus) (UniProt P70579)   z-score           2.95
25           CCOc1ccc2nc(SCc3ccccc3C#N)sc2c1  Metabotropic glutamate receptor 8 (Rattus norvegicus) (UniProt P70579)   z-score         -0.141
26  COc1cc(-c2nnc(SCC(=O)N3CCCC3)o2)cc(OC)c1OC  Metabotropic glutamate receptor 8 (Rattus norvegicus) (UniProt P70579)   z-score            2.2
27  CCCC(=O)NC(=S)Nc1cccc(NC(=O)c2ccc(Cl)cc2Cl)c1  Metabotropic glutamate receptor 8 (Rattus norvegicus) (UniProt P70579)   z-score        -0.0719
28  COc1ccc(OC)c(S(=O)(=O)NCc2csc(-c3ccccc3)n2)c1  Metabotropic glutamate receptor 8 (Rattus norvegicus) (UniProt P70579)   z-score         -0.245
29   CCN(C(=O)CCN1C(=O)c2ccccc2C1=O)C1CCCCC1  Metabotropic glutamate receptor 8 (Rattus norvegicus) (UniProt P70579)   z-score          0.156
30       COc1cc(OC)c(NC(=O)c2cccc(F)c2)cc1Cl  Metabotropic glutamate receptor 8 (Rattus norvegicus) (UniProt P70579)   z-score         -0.155
31           COc1ccc(C(=O)NCCC2=CCCCC2)cc1OC  Metabotropic glutamate receptor 8 (Rattus norvegicus) (UniProt P70579)   z-score         -0.214
32        CC(C)Cn1c(-c2csc3c2CCCC3)n[nH]c1=S  Metabotropic glutamate receptor 8 (Rattus norvegicus) (UniProt P70579)   z-score          -1.59
33             Cc1ccc(OC(=S)Nc2ccc(O)cc2)cc1  Metabotropic glutamate receptor 8 (Rattus norvegicus) (UniProt P70579)   z-score         0.0849
34  O=C(CS(=O)(=O)Cc1ccccc1)Nc1ccc(S(=O)(=O)N2CCOCC2)cc1  Metabotropic glutamate receptor 8 (Rattus norvegicus) (UniProt P70579)   z-score         -0.109
35                   O=C(O)CSCC(=O)Nc1ccccc1  Metabotropic glutamate receptor 8 (Rattus norvegicus) (UniProt P70579)   z-score        0.00603
36  Cc1cc(C)cc(N(CC(=O)O)S(=O)(=O)c2c(C)noc2C)c1  Metabotropic glutamate receptor 8 (Rattus norvegicus) (UniProt P70579)   z-score         -0.132
37    CCOC(CNC(=O)CCc1c(C)nc2nc(C)nn2c1C)OCC  Metabotropic glutamate receptor 8 (Rattus norvegicus) (UniProt P70579)   z-score         -0.308
38      Cn1c(N)c(C(=O)c2ccccc2)c(=O)n(C)c1=O  Metabotropic glutamate receptor 8 (Rattus norvegicus) (UniProt P70579)   z-score         -0.397
39    COc1ccc(-c2nnc(SCC(=O)N3CCCC3)o2)cc1OC  Metabotropic glutamate receptor 8 (Rattus norvegicus) (UniProt P70579)   z-score          0.322
40        CC(C)Cn1c(-c2csc3ccccc23)n[nH]c1=S  Metabotropic glutamate receptor 8 (Rattus norvegicus) (UniProt P70579)   z-score          0.509
41  CCc1ccc2[nH]c(=O)c(C(c3nnnn3Cc3ccco3)N3CCC(C)CC3)cc2c1 (centres undefined)  Metabotropic glutamate receptor 8 (Rattus norvegicus) (UniProt P70579)   z-score          -0.27
42  CC1SCC(=O)N(CC(=O)NCc2ccccc2)C1=O (centres undefined)  Metabotropic glutamate receptor 8 (Rattus norvegicus) (UniProt P70579)   z-score         -0.233
43  C=CCn1c(-c2csc3c2CCC(C)C3)n[nH]c1=S (centres undefined)  Metabotropic glutamate receptor 8 (Rattus norvegicus) (UniProt P70579)   z-score          0.494
44            CC(C)c1nc(=S)n(-c2ccccc2)[nH]1  Metabotropic glutamate receptor 8 (Rattus norvegicus) (UniProt P70579)   z-score  4.41 (active)
45  CN(C)S(=O)(=O)c1ccc(C(=O)Nc2ccccc2OC(F)(F)C(F)F)cc1  Metabotropic glutamate receptor 8 (Rattus norvegicus) (UniProt P70579)   z-score         -0.525
46  CCN(C(=O)CN1CCN(c2ccccc2O)CC1)c1c(N)n(Cc2ccccc2)c(=O)[nH]c1=O  Metabotropic glutamate receptor 8 (Rattus norvegicus) (UniProt P70579)   z-score  14.3 (active)
47              CC(C)n1c(=S)[nH]c2ccccc2c1=O  Metabotropic glutamate receptor 8 (Rattus norvegicus) (UniProt P70579)   z-score  9.16 (active)
48   CCOC(=O)c1ccccc1NC(=O)Nc1ccc(OC)c(OC)c1  Metabotropic glutamate receptor 8 (Rattus norvegicus) (UniProt P70579)   z-score          0.154
49                  CCCCCn1cnc2sc(CC)cc2c1=O  Metabotropic glutamate receptor 8 (Rattus norvegicus) (UniProt P70579)   z-score           -0.4
